Species: Rattus norvegicus
Test: Selectivity ratio of IC50 for rat Hao1 to IC50 for rat Hao2
QUANTITY_NAME: Ratio IC50

Cc1n[nH]c(C(=O)O)c1Cc1ccc(-c2ccc(OC(F)(F)F)cc2)cc1 | > 150
Cc1n[nH]c(C(=O)O)c1Cc1ccc(C#N)cc1 | > 150
CCOc1n[nH]c(C(=O)O)c1Cc1cccc(-c2ccc(F)cc2)c1 | > 150
Cc1n[nH]c(C(=O)O)c1Cc1cccc(-c2ccc(C(N)=O)cc2)c1 | > 150
Cc1n[nH]c(C(=O)O)c1Cc1cccc(-c2ccc(C(F)(F)F)cc2)c1 | > 150
Cc1n[nH]c(C(=O)O)c1Cc1cccc(C(N)=O)c1 | > 150
O=C(O)c1[nH]nc(-c2ccccc2)c1Cc1cccc(-c2ccc(F)cc2)c1 | > 150
Cc1n[nH]c(C(=O)O)c1Cc1cccc(-c2cccnc2)c1 | > 150
Cc1n[nH]c(C(=O)O)c1Cc1cc2ccccc2s1 | > 150
Cc1n[nH]c(C(=O)O)c1Cc1cccc(-c2cccc(F)c2)c1 | > 150

Give its Ratio IC50 value. Item: "Cc1n[nH]c(C(=O)O)c1Cc1cccc(F)c1"
> 150

Give its Ratio IC50 value. Item: "Cc1n[nH]c(C(=O)O)c1Cc1ccc(-c2ccc(F)cc2)cc1"
> 150

Give its Ratio IC50 value. Item: "Cc1n[nH]c(C(=O)O)c1-c1ccc(-c2ccc(F)cc2)cc1"
> 150

----------
Biological target: 2-Hydroxyacid oxidase 2 (Homo sapiens)
Assay: Inhibition of human Hao2-mediated oxidation of 2-hydroxyoctanoic acid assessed as proportionate release of H2O2 at 10 uM
QUANTITY_NAME: inhibition (%)
Expressed in %, but write only the number.

Before answering, review these 10 worked examples.
O=C(O)c1[nH]nc(CCc2ccccc2)c1Cc1cccc(-c2ccc(F)cc2)c1 | 16
Cc1n[nH]c(C(=O)O)c1Cc1cc2ccccc2s1 | 29
Cc1n[nH]c(C(=O)O)c1Cc1cccc(-c2ccccc2F)c1 | 22
Cc1n[nH]c(C(=O)O)c1Cc1cccc(OC(F)(F)F)c1 | 26
Cc1n[nH]c(C(=O)O)c1CCc1ccc(-c2ccc(F)cc2)cc1 | 39
Cc1n[nH]c(C(=O)O)c1Cc1ccc2ccccc2n1 | 18
Cc1n[nH]c(C(=O)O)c1-c1ccc(F)cc1 | 13
Cc1n[nH]c(C(=O)O)c1Cc1ccc(OC(F)(F)F)cc1 | 34
Cc1n[nH]c(C(=O)O)c1Cc1ccc(C(=O)O)cc1 | 22
Cc1n[nH]c(C(=O)O)c1Cc1ccc(C(F)(F)F)cc1 | 12

Turning now to a further compound:
Give its inhibition value. Item: "Cc1nn(C)c(C(=O)O)c1Cc1cccc(-c2ccc(F)cc2)c1"
3

----------
What follows is a record of IC50 for 2-Hydroxyacid oxidase 2 (Rattus norvegicus, UniProt Q07523).

Before answering, review these 5 worked examples.
O=C(O)c1[nH]nc(-c2ccccc2)c1Cc1cccc(-c2ccc(F)cc2)c1 | 1800 nM
Cc1[nH]nc(C(=O)O)c1Cc1cccc(C#N)c1 | 500 nM
Cc1[nH]nc(C(=O)O)c1Cc1ccc(Oc2ccccc2)cc1 | 500 nM
Cc1[nH]nc(C(=O)O)c1Cc1cccc(-c2ccc(C(F)(F)F)cc2)c1 | 400 nM
Cc1[nH]nc(C(=O)O)c1Cc1ccc(-c2ccc(C(F)(F)F)cc2)cc1 | 1100 nM

Report IC50 for "CC(C)c1n[nH]c(C(=O)O)c1Cc1cccc(-c2ccc(F)cc2)c1" tested on 2-Hydroxyacid oxidase 2 (Rattus norvegicus, UniProt Q07523).
Sequence (Q07523 whole entry): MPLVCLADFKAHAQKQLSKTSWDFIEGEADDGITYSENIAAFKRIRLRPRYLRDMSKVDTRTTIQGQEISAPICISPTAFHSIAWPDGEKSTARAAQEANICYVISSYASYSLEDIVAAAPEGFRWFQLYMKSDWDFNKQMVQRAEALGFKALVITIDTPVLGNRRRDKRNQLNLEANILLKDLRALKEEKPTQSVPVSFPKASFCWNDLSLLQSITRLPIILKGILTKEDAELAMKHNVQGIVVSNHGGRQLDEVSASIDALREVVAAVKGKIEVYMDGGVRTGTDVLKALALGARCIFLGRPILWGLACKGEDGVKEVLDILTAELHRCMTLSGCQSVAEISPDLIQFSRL
500 nM

Report IC50 for "Cc1n[nH]c(C(=O)O)c1Cc1ccc2ccccc2n1" tested on 2-Hydroxyacid oxidase 2 (Rattus norvegicus, UniProt Q07523).
1700 nM

Report IC50 for "Cc1[nH]nc(C(=O)O)c1Cc1cccc2ccccc12" tested on 2-Hydroxyacid oxidase 2 (Rattus norvegicus, UniProt Q07523).
200 nM
